MEASURED TARGET: Recombinant human TDO comprising amino acids 19-407 (Homo sapiens)
Construct: Recombinant human TDO comprising amino acids 19-407 with a N-terminal hexahistidine tag; hexahistidine (His6) (N); made in house; host or cells: E. coli
ASSAY PROTOCOL: TDO2 enzymatic assay (NFK quantified by LCMS)
Assay type: biochemical
CONDITION INFO: 15 nM enzyme, 200 μM L-tryptophan, pH7, 30 minutes pre-incubation at RT; mean values when measured multiple times; read-out: hTDO activity (IC50 in nM)
IC50 by entry:

{"MOLECULE": "COc1ccc(-n2cc(C(O)c3c(C4CC4)sc4cncn34)nn2)cc1Cl (racemic)", "IC50": "> 10200 nM"}
{"MOLECULE": "CCOc1ccc(-n2cc(C(O)c3c(C4CC4)sc4cncn34)nn2)cn1 (racemic)", "IC50": "> 10200 nM"}
{"MOLECULE": "CC(C)Oc1ccc(-n2cc(C(O)c3c(C4CC4)sc4cncn34)nn2)cn1 (racemic)", "IC50": "> 10200 nM"}

###

IC50 by entry:
MEASURED TARGET: Recombinant human TDO comprising amino acids 19-407 (Homo sapiens, UniProt P48775)
Construct: Recombinant human TDO comprising amino acids 19-407 with a N-terminal hexahistidine tag; hexahistidine (His6) (N); made in house; host or cells: E. coli
Sequence (P48775 19-406 limits assumed): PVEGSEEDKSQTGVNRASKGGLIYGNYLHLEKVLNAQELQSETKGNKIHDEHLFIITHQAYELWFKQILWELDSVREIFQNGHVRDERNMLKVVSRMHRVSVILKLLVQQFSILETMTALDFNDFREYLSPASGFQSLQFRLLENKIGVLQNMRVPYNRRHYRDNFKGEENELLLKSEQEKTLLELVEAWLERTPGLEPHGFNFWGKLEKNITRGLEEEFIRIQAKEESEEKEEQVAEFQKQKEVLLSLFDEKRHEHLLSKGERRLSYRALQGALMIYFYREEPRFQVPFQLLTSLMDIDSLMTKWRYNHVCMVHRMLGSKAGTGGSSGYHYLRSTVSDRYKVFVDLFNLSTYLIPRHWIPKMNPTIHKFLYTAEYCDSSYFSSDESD
ASSAY PROTOCOL: TDO2 enzymatic assay (NFK quantified by LCMS)
Type: biochemical
CONDITION INFO: 15 nM enzyme, 200 μM L-tryptophan, pH7, 30 minutes pre-incubation at RT; mean values when measured multiple times; read-out: hTDO activity (IC50 in nM)

{"MOLECULE": "CCOc1ncc(-n2cc(C(O)c3c(C4CC4)sc4cncn34)nn2)cc1C(F)(F)F (racemic)", "MEASURED TARGET": "Recombinant human TDO comprising amino acids 19-407 (Homo sapiens, UniProt P48775)", "IC50": "> 10200 nM"}
{"MOLECULE": "COc1ccc(-n2cc(C(O)c3c(-c4ccccc4F)sc4cncn34)nn2)cc1 (racemic)", "MEASURED TARGET": "Recombinant human TDO comprising amino acids 19-407 (Homo sapiens, UniProt P48775)", "IC50": "8670 nM"}
{"MOLECULE": "O=C(NCCO)c1ccc(-n2cc(C(O)c3c(C4CC4)sc4cncn34)nn2)cc1 (racemic)", "MEASURED TARGET": "Recombinant human TDO comprising amino acids 19-407 (Homo sapiens, UniProt P48775)", "IC50": "> 10200 nM"}
{"MOLECULE": "Oc1cc(-n2cc(C(O)c3c(C4CC4)sc4cncn34)nn2)cc(C(F)(F)F)c1 (racemic)", "MEASURED TARGET": "Recombinant human TDO comprising amino acids 19-407 (Homo sapiens, UniProt P48775)", "IC50": "> 10200 nM"}
{"MOLECULE": "O=C(Nc1ccc(-n2cc(C(O)c3c(C4CC4)sc4cncn34)nn2)cc1)N1CCOCC1 (racemic)", "MEASURED TARGET": "Recombinant human TDO comprising amino acids 19-407 (Homo sapiens, UniProt P48775)", "IC50": "> 10200 nM"}
{"MOLECULE": "COc1cccc(-c2ccc(C(O)c3c(C4CC4)sc4cncn34)s2)c1 (racemic)", "MEASURED TARGET": "Recombinant human TDO comprising amino acids 19-407 (Homo sapiens, UniProt P48775)", "IC50": "> 10200 nM"}
{"MOLECULE": "COc1cc(-n2cc(C(O)c3c(C4CC4)sc4cncn34)nn2)cnc1OC (racemic)", "MEASURED TARGET": "Recombinant human TDO comprising amino acids 19-407 (Homo sapiens, UniProt P48775)", "IC50": "> 10200 nM"}
{"MOLECULE": "OC(c1cn(-c2ccc(OCC3CC3)c(Cl)c2)nn1)c1c(-c2ccccc2)sc2cncn12 (racemic)", "MEASURED TARGET": "Recombinant human TDO comprising amino acids 19-407 (Homo sapiens, UniProt P48775)", "IC50": "> 10200 nM"}
{"MOLECULE": "Cc1sc2cncn2c1C(O)c1cn(-c2cccc(C#N)c2)nn1 (racemic)", "MEASURED TARGET": "Recombinant human TDO comprising amino acids 19-407 (Homo sapiens, UniProt P48775)", "IC50": "> 10200 nM"}
{"MOLECULE": "CC(C)(O)CCOc1ccc(-n2cc([C@H](O)c3c(C4CC4)sc4cncn34)nn2)cc1 [Example 140a]", "MEASURED TARGET": "Recombinant human TDO comprising amino acids 19-407 (Homo sapiens, UniProt P48775)", "IC50": "> 10200 nM"}
{"MOLECULE": "COC(=O)Nc1ccc(-n2cc(C(O)c3c(C4CC4)sc4cncn34)nn2)cc1 (racemic)", "MEASURED TARGET": "Recombinant human TDO comprising amino acids 19-407 (Homo sapiens, UniProt P48775)", "IC50": "8520 nM"}
{"MOLECULE": "CN(C)CCOc1ccc(-n2cc(C(O)c3c(C4CC4)sc4cncn34)nn2)cc1 (racemic)", "MEASURED TARGET": "Recombinant human TDO comprising amino acids 19-407 (Homo sapiens, UniProt P48775)", "IC50": "> 10200 nM"}
{"MOLECULE": "C=C(C)c1sc2cncn2c1C(O)c1cn(-c2ccc(OCCC(C)(C)O)c(Cl)c2)nn1 (racemic)", "MEASURED TARGET": "Recombinant human TDO comprising amino acids 19-407 (Homo sapiens, UniProt P48775)", "IC50": "> 10200 nM"}
{"MOLECULE": "COc1ccc(-n2nnc(C(O)c3c(C4CC4)sc4cncn34)c2C)cc1Cl (racemic)", "MEASURED TARGET": "Recombinant human TDO comprising amino acids 19-407 (Homo sapiens, UniProt P48775)", "IC50": "8840 nM"}
{"MOLECULE": "CCOc1ccc(-n2cc(C(O)c3c(C4CC4)sc4cncn34)nn2)cc1 (racemic)", "MEASURED TARGET": "Recombinant human TDO comprising amino acids 19-407 (Homo sapiens, UniProt P48775)", "IC50": "> 10200 nM"}
{"MOLECULE": "CCc1sc2cncn2c1C(O)c1cn(-c2ccc(S(=O)(=O)NC)cc2)nn1 (racemic)", "MEASURED TARGET": "Recombinant human TDO comprising amino acids 19-407 (Homo sapiens, UniProt P48775)", "IC50": "> 10200 nM"}
{"MOLECULE": "O=S(=O)(c1ccc(-n2cc(C(O)c3c(C4CC4)sc4cncn34)nn2)cc1)N1CCCC1 (racemic)", "MEASURED TARGET": "Recombinant human TDO comprising amino acids 19-407 (Homo sapiens, UniProt P48775)", "IC50": "> 10200 nM"}
{"MOLECULE": "OC(c1cn(-c2ccc(OC(F)(F)F)cc2)nn1)c1c(C2CC2)sc2cncn12 (racemic)", "MEASURED TARGET": "Recombinant human TDO comprising amino acids 19-407 (Homo sapiens, UniProt P48775)", "IC50": "> 10200 nM"}
{"MOLECULE": "NC(=O)Nc1ccc(-n2cc(C(O)c3c(C4CC4)sc4cncn34)nn2)cc1 (racemic)", "MEASURED TARGET": "Recombinant human TDO comprising amino acids 19-407 (Homo sapiens, UniProt P48775)", "IC50": "7110 nM"}
{"MOLECULE": "Oc1cc(Cl)ccc1-n1cc(C(O)c2c(C3CC3)sc3cncn23)nn1 (racemic)", "MEASURED TARGET": "Recombinant human TDO comprising amino acids 19-407 (Homo sapiens, UniProt P48775)", "IC50": "> 10200 nM"}

###

MEASURED TARGET: Recombinant full-length human IDO1 (Homo sapiens)
Construct: Recombinant full-length human IDO1 with a N-terminal hexahistidine tag; hexahistidine (His6) (N); made in house; host or cells: E. coli
Sequence (P14902 whole entry): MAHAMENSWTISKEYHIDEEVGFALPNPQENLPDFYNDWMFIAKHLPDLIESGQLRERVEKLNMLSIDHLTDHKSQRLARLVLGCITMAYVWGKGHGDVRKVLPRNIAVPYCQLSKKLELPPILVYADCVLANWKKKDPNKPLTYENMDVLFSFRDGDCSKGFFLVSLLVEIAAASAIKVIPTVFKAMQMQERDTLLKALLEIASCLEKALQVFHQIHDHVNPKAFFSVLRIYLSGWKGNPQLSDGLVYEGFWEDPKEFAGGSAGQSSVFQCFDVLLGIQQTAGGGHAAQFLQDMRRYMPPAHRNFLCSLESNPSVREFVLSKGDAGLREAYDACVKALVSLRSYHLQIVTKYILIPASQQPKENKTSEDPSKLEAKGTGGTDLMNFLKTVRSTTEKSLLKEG
ASSAY PROTOCOL: IDO1 enzymatic assay (NFK quantified by LCMS)
Assay type: biochemical
CONDITION INFO: 2 nM enzyme, 5 μM L-tryptophan, pH6.5, 30 minutes pre-incubation at RT; mean values when measured multiple times; read-out: hIDO activity (IC50 in nM)
METRIC: log10 of IC50 (log10 of the value in nM)

{"MOLECULE": "OC(c1cn(-c2ccc(OCCN3CCCCC3)cc2)nn1)c1c(C2CC2)sc2cncn12 (racemic) [Example 89]", "MEASURED TARGET": "Recombinant full-length human IDO1 (Homo sapiens)", "OBSERVED": 2.31}
{"MOLECULE": "O=C(NCCO)c1ccc(-n2cc(C(O)c3c(C4CC4)sc4cncn34)nn2)cc1 (racemic) [Example 186]", "MEASURED TARGET": "Recombinant full-length human IDO1 (Homo sapiens)", "OBSERVED": 1.24}
{"MOLECULE": "CCN(CC)S(=O)(=O)c1ccc(-n2cc(C(O)c3c(C4CC4)sc4cncn34)nn2)cc1 (racemic) [Example 238]", "MEASURED TARGET": "Recombinant full-length human IDO1 (Homo sapiens)", "OBSERVED": 2.14}
{"MOLECULE": "COc1c(F)cc(-n2cc(C(O)c3c(C4CC4)sc4cncn34)nn2)cc1Cl (racemic) [Example 288]", "MEASURED TARGET": "Recombinant full-length human IDO1 (Homo sapiens)", "OBSERVED": 1.18}
{"MOLECULE": "O=C(Nc1ccc(-n2cc(C(O)c3c(C4CC4)sc4cncn34)nn2)cc1)c1ccccc1 (racemic) [Example 189]", "MEASURED TARGET": "Recombinant full-length human IDO1 (Homo sapiens)", "OBSERVED": 1.49}
{"MOLECULE": "CC(C)(O)COc1ccc(-n2cc([C@H](O)c3c(C4CC4)sc4cncn34)nn2)cc1 [Example 139a]", "MEASURED TARGET": "Recombinant full-length human IDO1 (Homo sapiens)", "OBSERVED": 0.74}
{"MOLECULE": "COc1ccc(-n2cc(C(O)c3c([C@@H]4C[C@H]4F)sc4cncn34)nn2)cc1 (relative stereo) [Example 94]", "MEASURED TARGET": "Recombinant full-length human IDO1 (Homo sapiens)", "OBSERVED": 1.11}
{"MOLECULE": "COc1ccc(-n2cc(C(O)c3c(-c4ccc(F)cc4)sc4cncn34)nn2)cc1 (racemic) [Example 286]", "MEASURED TARGET": "Recombinant full-length human IDO1 (Homo sapiens)", "OBSERVED": 2.85}
{"MOLECULE": "COc1cc(F)c(-n2nnc(C(O)c3c(C4CC4)sc4cncn34)c2C)cc1Cl (racemic) [Example 333]", "MEASURED TARGET": "Recombinant full-length human IDO1 (Homo sapiens)", "OBSERVED": 0.16}
{"MOLECULE": "OC(c1cn(-c2ccc(OCCC3(O)CC3)cc2)nn1)c1c(C2CC2)sc2cncn12 (racemic) [Example 142]", "MEASURED TARGET": "Recombinant full-length human IDO1 (Homo sapiens)", "OBSERVED": 1.12}
{"MOLECULE": "COC(=O)Nc1ccc(-n2cc(C(O)c3c(C)sc4cncn34)nn2)cc1 (racemic) [Example 58]", "MEASURED TARGET": "Recombinant full-length human IDO1 (Homo sapiens)", "OBSERVED": 1.84}
{"MOLECULE": "OC(c1cn(-c2ccc(OCc3ccccc3)c(F)c2)nn1)c1c([C@@H]2C[C@H]2F)sc2cncn12 (relative stereo) [Example 322]", "MEASURED TARGET": "Recombinant full-length human IDO1 (Homo sapiens)", "OBSERVED": 1.21}
